These measurements were taken from PubChem BioAssay AID1259407.

system: CCRIS mutagenicity, Ames/micronucleus/aberration tests; test: CCRIS mutagenicity studies; details: Test System: AMES SALMONELLA TYPHIMURIUM; Strain/Indicator: TA98; Metabolic Activation: RAT, LIVER, S-9, AROCLOR 1254; Method: STANDARD PLATE
Active and inactive are the calls of the source. No rule for the calls is given here.
Returns: one label drawn from 1.0 (active), 0.0 (inactive)

Recorded test call requested for CN(C)C=O
0.0

Recorded call for Cc1c([N+](=O)[O-])cnc2c1nc1c(C)cccn12 ?
1.0

Look up the recorded call for O=C1Nc2ccc([N+](=O)[O-])cc2C1=O in this test.
1.0

What outcome does the record of this test show for O=C1c2ccc(O)c(O)c2C(=O)c2c(O)ccc(O)c21 ?
0.0

What did the test return for Cn1c(N)nc2c3nc(-c4ccccc4)c(-c4ccccc4)nc3ccc21 ?
0.0

# lookup: test call for CCOC(=O)c1[nH]c2ccccc2c1N=Cc1ccc(O)cc1
0.0

// outcome(item) with item = O=C1C=CC(=O)N1
1.0

Fill in: this test's call for CNCCN(Cc1ccc(OC)cc1)c1ccccn1 is ___
0.0

Tell me the assay call for O=C1c2ccccc2-c2ccccc21 please.
0.0

Which outcome was assigned to CC(=O)N(O)c1ccc(C)cc1 in this test?
0.0

Fill in: this test's call for CC/C(=C(\c1ccccc1)c1ccc(OCCN(C)C)cc1)c1ccccc1 is ___
0.0

Assay outcome for O=CN(O)c1ccc(Br)cc1 : what was it?
1.0

Outcome? O=C(O)Nc1ccccc1
0.0

Outcome logged for CCOP(=O)(OCC)O/C(=C/Br)c1ccc(Cl)cc1Cl in this assay:
0.0

Outcome? O=c1c(O)c(-c2ccc(O)cc2)oc2cc(O)cc(O)c12
1.0

Per the assay record, what outcome was assigned to Nc1ncnc2nc[nH]c12 ?
1.0

Would you mind telling me which call this test gave O=C1N=NC(=O)C2C=CC=CC12 (configuration not stated) ?
0.0

Per the records of this test, what outcome belongs to O=[N+]([O-])c1ccc2c(c1)Cc1ccccc1-2 ?
1.0

Fill in: this test's call for O=C([O-])/C=C/C(=O)[O-].[Fe+2] is ___
1.0

What is the recorded call for this compound in the test? FC(F)(F)c1ccc(Cl)cc1
0.0

Which result was noted for this compound in the test: CC(C)CCC[C@@H](C)[C@H]1CC[C@H]2[C@@H]3C[C@@H](O)[C@@]4(O)C[C@@H](O)CC[C@]4(C)[C@H]3CC[C@]12C
0.0

So what was the verdict on Oc1cc(Cl)c(Cl)cc1Cl in this test?
1.0

Assay outcome for CO/N=C(\C(=O)N[C@@H]1C(=O)N2C(C(=O)O)=C(CSC(=O)c3ccco3)CS[C@H]12)c1csc(N)n1 : what was it?
0.0

What classification did COc1cc(-c2ccc(N)c(OC)c2)ccc1N end up with in this test?
1.0

What did this assay record as the result for O=[N+]([O-])c1ccc2ccc3cccc4cc(O)c1c2c34 ?
1.0

I'd appreciate the recorded outcome for Cc1ccc(S(=O)(=O)NN)cc1 from this test.
0.0

Look up the recorded call for O=NN1CCCC1 in this test.
0.0

---

Tested on: CCRIS mutagenicity, Ames/micronucleus/aberration tests
Experiment: CCRIS mutagenicity studies
Conditions: Test System: AMES SALMONELLA TYPHIMURIUM; Strain/Indicator: TA98; Metabolic Activation: RAT, LIVER, S-9, AROCLOR 1254 (10%); Method: PREINCUBATION
Description: The CCRIS database contains chemical records with carcinogenicity, mutagenicity, tumor promotion, and tumor inhibition test results. It was developed by the National Cancer Institute (NCI). Data are derived from studies cited in primary journals, current awareness tools, NCI reports, and other sources. Test results have been reviewed by experts in carcinogenesis and mutagenesis. CCRIS provides historical information from the years 1985 - 2011. It is no longer updated. […]
Activity calls are given as the source filed them. No rule for the calls is given here.
Give one outcome, nothing more. List: TRUE = active, FALSE = inactive

Each compound tested received a call. Report the one for Cc1cccc(Br)c1 .
FALSE

Short answer needed: outcome of this test for O=NN(CCO)CCO ?
TRUE

Assay result, entry Clc1c(Cl)c(Br)c2c(c1Cl)-c1nc-2nc2[n-]c(nc3nc(nc4[n-]c(n1)c1c(Cl)c(Br)c(Cl)c(Br)c41)-c1c(Cl)c(Cl)c(Br)c(Cl)c1-3)c1c(Br)c(Cl)c(Br)c(Cl)c21.[Cu+2] — outcome?
TRUE

Please indicate how the test categorized CC(O)C#N (stereo not drawn) .
FALSE

Answer briefly: the call reported for Oc1cccc(O)c1 in this assay.
FALSE

// param item: CC(C)Nc1ccc(Nc2ccccc2)cc1 ; yields the recorded call
FALSE

What did this assay record as the result for CCOP(=S)(OCC)OP(=S)(OCC)OCC ?
FALSE

Dear colleague, could you share the recorded outcome for c1cc2c3c(cccc3c1)CC2 when you have a moment?
FALSE

---

tested on: CCRIS mutagenicity, Ames/micronucleus/aberration tests; test: CCRIS mutagenicity studies; conditions: Test System: AMES SALMONELLA TYPHIMURIUM; Strain/Indicator: TA102; Metabolic Activation: NONE; Method: STANDARD PLATE
Active and inactive are the calls of the source. How the calls were made is not given here.
Form entry, call: pick from active, inactive

// outcome(item) with item = CCN(CCCl)c1ccc(OCCCCCNc2c3ccccc3nc3ccccc23)cc1
inactive

Name the outcome recorded for CC(C)Nc1nc(Cl)nc(NC(C)C)n1 in the assay.
inactive

Hi team, can someone confirm the assay call for CC1=CC(=O)c2ccccc2C1=O ?
inactive

Given CCCCCCCOP(=S)([S-])OCCCCCCC.CCCCCCCOP(=S)([S-])OCCCCCCC.[Zn+2] , state the outcome it received in this test.
inactive

For Clc1ccc(Cl)nc1 , what call appears in the results of this test?
inactive

// param item: CC(C)CCC[C@@H](C)[C@H]1CC[C@H]2[C@@H]3C[C@@H](O)[C@@]4(O)C[C@@H](O)CC[C@]4(C)[C@H]3CC[C@]12C ; yields the recorded call
active

In this assay, the call recorded for CC1=C2C(=CO[C@H](C)[C@H]2C)C(=O)C(C(=O)O)=C1O was what?
inactive

Outcome logged for Cc1ccc(S(=O)(=O)NN)cc1 in this assay:
inactive

For COC1=C(N)C(=O)c2nc(-c3nc(C(=O)O)c(C)c(-c4ccc(OC)c(OC)c4O)c3N)ccc2C1=O , which call appears in the assay record?
active

Lab log entry: CC[n+]1c2ccccc2nc2ccccc21 — outcome as called in the assay?
inactive

Short answer needed: outcome of this test for N[C@@H](CCC(=O)N[C@@H](CS)C(=O)NCC(=O)O)C(=O)O ?
inactive

---

system: CCRIS mutagenicity, Ames/micronucleus/aberration tests; test: CCRIS mutagenicity studies; details: Test System: CHINESE HAMSTER OVARY; Strain/Indicator: CHO-K1-BH4 (HGPRT)/6-THIOGUANINE; Metabolic Activation: NONE
The source made the active and inactive calls. The rule behind the calls is not given here.
measured_property: mutagenic call

Would you please look over these solved cases?
CNC(=O)CN(CCN(CCN(CC(=O)O)CC(=O)NC)CC(=O)O)CC(=O)O | inactive; negative
O=C(O)CC[N+](=O)[O-] | inactive; negative
CCCCOCCOCCO | inactive; negative
Clc1nc(Cl)nc(Nc2ccccc2Cl)n1 | inactive; negative
O=[Se](O)O | active; positive

Now consider a different compound.
Field mutagenic call (system: CCRIS mutagenicity, Ames/micronucleus/aberration tests) for entry O=[N+]([O-])c1ccc2ccc3cc4c(c5ccc1c2c35)C1OC1[C@@H](O)[C@@H]4O (stereo partly specified) = active; positive

---

test system: CCRIS mutagenicity, Ames/micronucleus/aberration tests; test: CCRIS mutagenicity studies; settings: Test System: AMES SALMONELLA TYPHIMURIUM; Strain/Indicator: TA97A; Metabolic Activation: NONE; Method: STANDARD PLATE
Activity calls are given as the source filed them. The rule behind the calls is not given here.
Use one of these outcomes when replying: 1 for active, 0 for inactive

// return assay outcome for O=c1c(O)c(-c2ccc(O)cc2)oc2cc(O)cc(O)c12
0

# lookup: test call for CCCCC1C(=O)N(c2ccccc2)N(c2ccc(O)cc2)C1=O (stereo not given)
0

In this assay, the call recorded for O=C(O)CCCc1c[nH]c2ccccc12 was what?
0

Dear all, I need the recorded test outcome for CCOP(=S)(OCC)SCn1c(=O)oc2cc(Cl)ccc21 , thank you.
0

Recorded call for CC(C)CCC[C@@H](C)[C@H]1CC[C@H]2[C@@H]3CC=C4CCCC[C@]4(C)[C@H]3CC[C@]12C ?
0

Could you please tell me the result logged for N#C/C(=C/C=C/c1ccccc1)c1ccc(F)cc1 in this assay?
1

Can you look up the reported call for CC12CCC(CC1)C(C)(C)O2 for me?
0

Hi, do you know how CN(C)c1ccc(C(c2ccccc2)c2ccc(N(C)C)cc2)cc1 came out in this test?
0

Tell me the recorded outcome of this test for CCCC[C@@H](C)[C@@H](OC(=O)C[C@@H](CC(=O)O)C(=O)O)[C@H](C[C@@H](C)C[C@H](O)CCCC[C@@H](O)C[C@H](O)[C@H](C)N)OC(=O)C[C@@H](CC(=O)O)C(=O)O .
0

Hey, what did the test say about CC1=C(C(=O)Nc2ccccc2)SCCO1 ?
0
